melting point listing for selected molecules.

Look over these answered cases.
- molecule: "O=C(c1ccccc1)c1c(O)c(=O)ccn1CCO"
  melting point: "195 to 200 °C"
- molecule: "CC(=O)OCn1cc(C#N)c(-c2ccccc2Cl)c1"
  melting point: "91 to 95 °C"
- molecule: "O=C(c1ccc(C2CCCCC2)cc1)N1Cc2cccn2Cc2ncccc21"
  melting point: "150 to 152 °C"
- molecule: "Cc1cc(CC(=O)O)c(CC(C)N)cc1C (stereo not drawn)"
  melting point: "222 to 223 °C"
- molecule: "CCCCOc1ccc(C(=O)N(C)Cc2cccc(-c3ccc(CC4SC(=O)NC4=O)cc3)c2)cc1 (stereo not drawn)"
  melting point: "116 °C"
- molecule: "CC1(C)NC(=O)OC12CCN(C(=O)OCc1ccccc1)CC2"
  melting point: "208 to 209 °C"

Noted for CS(=O)(=O)Nc1ccc(N2CCN(c3cc([N+](=O)[O-])ccn3)CC2)cc1 : its melting point reads 182 to 183 °C

Noted for CCCC(O)c1cc(-c2ccc(F)cc2)oc1C (stereo not drawn) : its melting point reads 96 to 97 °C

Noted for CS(=O)(=O)c1ccc2c(C=C[N+](=O)[O-])c[nH]c2c1 : its melting point reads > 250 °C

Noted for CC(C)(C)OC(=O)NC(Cc1ccccc1)C(=O)NC(Cc1ccc(C(F)(F)F)cc1)C(O)c1ccc(F)cc1 (mixture of isomers) : its melting point reads 230 to 231 °C

Noted for Nc1ccc(Cl)c(Cl)c1Br : its melting point reads 78 to 80 °C

Noted for CCOCCOc1ccc(C(=O)CN(Cc2ccccc2)Cc2ccccc2)cc1C(N)=O : its melting point reads 128 to 131 °C

Noted for Fc1ccc2[nH]cc(CC3CCN(CC4COc5ccc6ncccc6c5O4)CC3)c2c1 (stereo not drawn) : its melting point reads 184 °C

Noted for CC1(C)CCC(C)(C)c2cc(CC#Cc3ccc(C(=O)O)cc3)ccc21 : its melting point reads 167 to 168 °C

Noted for CN1CCC(=C2c3ccccc3C=Cc3ccc(C(=O)O)cc32)CC1 : its melting point reads 300 to 305 °C

Noted for CCCCn1c(=O)c2cc(OC)c(OC)cc2c2nnc3cc4c(cc3c21)OCO4 : its melting point reads 299 °C

Noted for C1=C(c2c[nH]c3ccccc23)CCN(CCc2csc3ccccc23)C1 : its melting point reads 195 to 198 °C

Noted for OC(CN1CC=C(c2c[nH]c3ccccc23)CC1)C1COc2ccccc2O1 (stereo not drawn) : its melting point reads 177 °C

Noted for Fc1ccc2[nH]cc(CC3CCN(CCOc4ccc5c(c4)CCC5)CC3)c2c1 : its melting point reads 150 to 152 °C

Noted for [N-]=[N+]=NCC1Cc2c[nH]c3cccc(c23)C(=O)N1 (stereo not drawn) : its melting point reads 152 to 153 °C

Noted for CCN(c1ccccc1)c1ccc(C(=O)c2ccccc2)cc1N : its melting point reads 82 to 82.5 °C

Noted for CC1(C)CC(Nc2nc(NC3CC(C)(C)NC(C)(C)C3)nc(N(CO)C3CC(C)(C)NC(C)(C)C3)n2)CC(C)(C)N1 : its melting point reads 201 to 202 °C

Noted for CCSc1c(Nc2c(C)c(=O)c2=O)ccc2[nH]cc(CCCO)c12 : its melting point reads 119 °C

Noted for CCCCc1nc2c(N)nc3ccccc3c2n1CCCCNC(=O)c1ccccc1 : its melting point reads 174 to 175 °C

Noted for C#CCOc1ccc(Br)cn1 : its melting point reads 58 to 60 °C

Noted for Cc1ccc(C(=O)Nc2ccc(CN(C)C)c(C(F)(F)F)c2)cc1Br : its melting point reads 156 to 157 °C

Noted for Cc1cc(-c2cnn3c(C(F)(F)F)cc(-c4ccc(F)c(Cl)c4)nc23)cc(C)n1 : its melting point reads 271 °C

====

melting point listing for selected compounds.

Look over these answered cases.
- compound: "CC(C)(C(=O)c1ccc(Cl)cc1)n1cncn1"
  melting point: "111 °C"
- compound: "CNc1nc(Cl)nc2c1ncn2C1CC(F)C(CO)O1 (stereo unspecified)"
  melting point: "181 to 182 °C"
- compound: "O=C(Cn1cc(-c2ccccc2)c(-c2ccccc2)n1)NCCN1CCCCC1"
  melting point: "120 to 124 °C"
- compound: "CC(=O)OCc1nc([N+](=O)[O-])c(C#N)n1C"
  melting point: "92 to 93 °C"
- compound: "COc1ccc(N2C(=O)C3Cc4c(ncn4Cc4ccccc4)CN3C2=S)cc1 (stereo unspecified)"
  melting point: "100 to 120 °C"

Noted for CS(=O)(=O)OC1CN(c2c(F)cc3c(=O)c(C(=O)O)cn(C4CC4)c3c2F)C1 : its melting point reads 240 to 244 °C

Noted for COC(=O)c1c(SC)c2cc(OC)ccc2n1C : its melting point reads 89 to 91 °C

Noted for CCN(C(=O)N(C)C)c1ccccc1-c1ccc2nnc(C)n2n1 : its melting point reads 138 to 140 °C

Noted for CCN(c1ccc([N+](=O)[O-])cc1Cl)S(=O)(=O)c1ccc(C)cc1 : its melting point reads 118 to 119 °C

Noted for CCOC(=O)C(CCc1ccccc1)NC1CSC(c2ccsc2)CN(CC(=O)O)C1=O (stereo unspecified) : its melting point reads 165 °C

Noted for COc1cc(C=C2OC(C)=CC2=O)ccc1O : its melting point reads 168 to 170 °C

Noted for Cc1oc(-c2ccccc2)nc1COc1ccc(C(=O)c2ccccc2O)cc1 : its melting point reads 121 to 122 °C

Noted for CCCc1nc(CO)c(C(=O)O)n1Cc1cc2c(cc1Cl)OCO2 : its melting point reads 240 °C

Noted for CSc1ccc(-c2nn(Cc3ccccc3)c(=S)cc2-c2ccc(F)cc2)cc1 : its melting point reads 108 °C

Noted for CCCCCC(=O)ONC(=N)c1ccc(NC(=O)CCCC(=O)Nc2ccc(C(=N)NOC(=O)CCCCC)cc2)cc1 : its melting point reads 182 to 184 °C

Noted for C=C(C)SC1C(NC(=O)COc2ccccc2)C(=O)N1C=O (stereo unspecified) : its melting point reads 156 to 158 °C

Noted for Cc1ccnc2c([N+](=O)[O-])cc(F)cc12 : its melting point reads 139 to 141 °C

Noted for CCOC(=O)c1c(-c2ccc(F)cc2)c2n(c1C(C)C)CCCC2 : its melting point reads 85.5 to 86.5 °C

Noted for COc1ccc(OC(F)(F)F)cc1[C@H]1CO[C@]2(CCCN[C@H]2c2ccccc2)C1 : its melting point reads 91 to 104 °C

Noted for Fc1cc(-c2nc3ccccc3o2)ccc1CBr : its melting point reads 150 to 152 °C

Noted for NC(=O)NCc1ccc2c(c1)OCO2 : its melting point reads 183 to 184 °C

====

melting point listing for selected compounds.

Look over these answered cases.
- compound: "O=c1[nH]c2ccccc2c2nc(-c3ccco3)nn12"
  recorded_endpoint: "melting point"
  result: "338 to 343 °C"
- compound: "N#Cc1c(Cl)cccc1CSCCNC(=O)c1c(Cl)cccc1Cl"
  recorded_endpoint: "melting point"
  result: "166 to 168 °C"
- compound: "Sc1nnc(-c2ccc(Cl)cc2)s1"
  recorded_endpoint: "melting point"
  result: "178 °C"
- compound: "CC1(C)COC(c2cc(F)c(F)c([Si](C)(C)C)c2F)=N1"
  recorded_endpoint: "melting point"
  result: "71 to 72 °C"
- compound: "O=C(Cl)C(Oc1cccc(C(F)(F)F)c1)c1ccc(Cl)cc1 (stereo not given)"
  recorded_endpoint: "melting point"
  result: "96 to 98 °C"

Noted for C[C@H](NS(=O)(=O)c1ccc2c(Cl)cnc(Cl)c2c1)C(=O)OC(C)(C)C : its melting point reads 115 to 119 °C

Noted for CC(=O)Nc1nc2c(s1)-c1nn(C(=O)c3ccccc3)cc1CC2 : its melting point reads 266 to 267 °C

Noted for CC(C)NC(=O)c1cnc(N2CCC(N3C(=O)OCc4ccccc43)CC2)c(Cl)c1 : its melting point reads 216 °C

Noted for Cn1cc(Oc2cc(Cl)cc(Cl)c2)c(=O)c(-c2cccc(C(F)(F)F)c2)c1 : its melting point reads 128 to 130 °C

Noted for O=c1cc(OCc2ccccc2)cc(CC(O)c2ccc(OCc3ccccc3)c(OCc3ccccc3)c2)o1 (stereo not given) : its melting point reads 109 to 110 °C

====

melting point listing for selected compounds.

Look over these answered cases.
- compound: "CC(C)(C)OC(=O)NCc1ccc(CC(=O)O)cc1"
  melting point: "89 to 91 °C"
- compound: "COc1ccccc1N1CCN(CC(O)COc2ccccc2CN)CC1 (stereo not given)"
  melting point: "113 to 114 °C"
- compound: "CCOC(=O)c1cc(O)c(C(=O)c2ccccc2)c([N+](=O)[O-])c1"
  melting point: "167 to 168 °C"
- compound: "COC(=O)c1cccc(-c2nc(C(N)=O)c3[nH]c(=O)n(-c4ccccc4OC)c3n2)c1"
  melting point: "265 to 266 °C"

Noted for O=S(=O)(Nc1cccc(CCOCc2csc(-c3ccccc3Cl)n2)c1)C(F)(F)F : its melting point reads 86 to 87 °C
